test: PET hydrolysis, aromatic products released after 48 h (umol product/mg enzyme); higher = more PET depolymerization activity; settings: substrate: aFilm; 40 °C; pH 4.5
TEST READOUT: PET hydrolysis

INSERT INTO assay_data (sequence_chain, recorded_result) VALUES
  ('ADNPYQRGPDPTPASVGASRGTFATAQVSVPAGNGFGGGVIYYPTDTSQGRFGAVAVVPGYTATWAAEGAWMGPWLASFGFVVIGIDTNSRNDWDTARGTQLLAALDYLTQRSSVRDRVDASRAAVMGHSMGGGGAIYAALQRPSLKTTVGLAPFSASQTLNNMRVPTMLLAGQNDGTTTPASIRNYYGQVPSGVEKAYLELTGAGHGFPTSNNPTMMRNVIPWLKIFVDSDTRYTQFLCPLSNTNGIRSYESTCPLVPSPVPTDPPTSAPPTSTPPTTPPPTTPPPTTPAPGGPCAASYRTVNSWSGGFQGEVTVRAGGAPINGWTVRWTLGGGQSISQVWNGTLSTSGSTATVRNAPYNGSLPASGSTTFGFIANGSPSAPTLTCASP [TEP013]', '< 3');

---

test: PET hydrolysis, aromatic products released after 48 h (umol product/mg enzyme); higher = more PET depolymerization activity; settings: substrate: cryPow; 40 °C; pH 5.5
Listed sequences paired with reported PET hydrolysis
TEST READOUT: PET hydrolysis

INSERT INTO measurements (sequence_chain, test_readout, recorded_result) VALUES
  ('AIEHRRGPAPSEQSVLAANGPFSHSTFAVSDAASAKFGKGTIYYPNDTSQGTFGGVAISPGYTSTEPHIAWLGTRLAAHGFVTITITTNSLYDNPTERGQQLLAALDYLANNAPLAIRQRLDTSRMGVVGHSMGGGGSLYAVWNRPALKAAVPLAPYHTIKNWSGIKTPTMIIGGSADGVAPVEEHSERFYSSMTYARERAYAELEGANHSGSFLFEDHPIIGKFTVAWLKRFIDGDTRYDQFLCPPPTGAYLTEYRASCPHA [DP006]', 'PET hydrolysis', '< 3'),
  ('ATGPSSPCSNCTRGPDPTVASLKSATGPYTTAKFSVSGYLKGFGDSTVYYPTNASGKMGAIAVIPGYVSYEDSIKWWGPRLASHGFVVMTMNTSTIYDQPDSRATQLSKALDYMIAQSGSSSSPIYNKVDSTRLGVIGWSMGGGGTLKLSTQRSINAIIPQAPYYAGSNSFNTIKTPALILACGADAVAPVGVHASPFYNRIPGTTPKAYLEIYGGSHFCANSGYPNEDLLGMYGIAWMKRFIDFDSRYSKFLCGPNHTADLNISEYRQNCNY [DP078]', 'PET hydrolysis', 9),
  ('MPPPDSGAAAHERVHAEPSDPATVGSAGGNPFARGPDPTLASVAAEFGPFATTQLSVPPGHGFNGGYVYYPTDASPTFGAVAIVPGYTALFADEEAWMGPRLASFGFVVIGIETNSREDWDRARGAQLLAALDYVTQHSTVRTRVDSSRLAVIGHSMGGGGAFAAATRRPSLKAVVGLAPYFPSGDLATVRVPTLIIGGQRDTTVTPSYLDDLYATLPTRTPSAYLMLADADHLFPTRPNPVEMRLLIPWLKIFVDRDTRYVRFLCPLADRSGIAQYRVTCPLVPPA [TEP003]', 'PET hydrolysis', '< 3');

---

assay: purified protein yield per well (BCA); higher = higher soluble expression
TEST READOUT: purified protein yield per well

INSERT INTO assay_data (sequence_chain, recorded_result) VALUES
  ('NNPAPTPTPTPTPGTPSAYQRGPAPSVSFLQASRGDLSVRTSRVSSFTSGFGGGTIHYPTGTTGTMAAIVVIPGYVSAESSIEWWGPKLASYGFVVMTIDTNSGFDQPPSRARQINSALDYLVSQNSSSRSPVRGMIDTNRLGVVGWSMGGGGTLRVAEEGRIKAAIPLAPWDTTNFRDNYTPTLIFACQSDVIAPVNQHASPFYNQIPSSTDKAFVELSGGSHYCGNGGGVYNNVLGRLGVSWMKRHLDQDTRYDQFLCGPNHESDSRISEYRGNCSN [ESM126]', '< 25 µg'),
  ('VQNGPAPTLAALKADGPYAITSQAVAGNGFGAGTIYTPTAAGKYALVAICPGFVSAQSTMAGLAKRLATHGFVVVAISTNTLLDFPSSRATQLLAALKTVSALNTGAVAGKVDTTRQAVSGWSMGGGGTLEAAGATPGLVAAVAFAPWDTSTTKMKVNKVPAAIIGGSSDAVAPVASHSQKFYD [ESM063]', '< 25 µg'),
  ('GPYQVAYYSSYPPVPEFSAATIYFPANKGEDFAGVAISPGFVESQENMSWWGRHLASHGFAVLTLDTNELRDNPSLRADALMAAIEVLRNEGDRMGSTLRGKILKDRMAIMGHSMGGGGTLIAANAHSADLKAAIPFTPWQPDGDFSTISIPTLVIAGENDRIAVMDIHGASLSTIHHEGDEGV [TEP125]', '< 25 µg');

The measured values listed here are drawn from the supplement of paper PMC12455559.
